biological target: human orexin-2 receptor (Homo sapiens (Human)); experiment: In vitro assay: intracellular calcium measurements (FLIPR), antagonistic activity; conditions: CHO cells expressing human orexin-2 receptor, orexin-A agonist, geometric mean, read-out: IC50 Ox2
We begin with a simple list: items and their reported pIC50.
Quick note: pIC50 values are minus log10 of concentrations in mol/L.

Example entries begin here.
COc1cc2nc([C@@H]3[C@@H](C)CCN3C(=O)c3ccc(C)cc3-n3nccn3)[nH]c2cc1OC ... 7.29
CO[C@H]1CN(C(=O)c2cc(C)ccc2-n2nccn2)[C@](C)(c2nc3c(C)c(Cl)ccc3[nH]2)C1 ... 8.70
CO[C@@H]1C[C@@H](c2nc3ccc(Cl)c(C)c3[nH]2)N(C(=O)c2nc(C)sc2-c2cccc(C)c2)C1 ... 8.30
COc1ccccc1-c1sc(C)nc1C(=O)N1CC[C@H](C)[C@H]1c1nc2c(Cl)cccc2[nH]1 ... 5.56
Cc1nc(C(=O)N2CCCC2c2nc3c(C)c(Cl)ccc3[nH]2)c(-c2ccccc2)s1 (stereo not drawn) ... 7.96
COc1ccc(-n2nccn2)c(C(=O)N2CCC[C@@]2(C)c2nc3cc(OC(F)(F)F)ccc3[nH]2)c1 ... 6.65
CSc1cccc2nc([C@@H]3CCCN3C(=O)c3nccnc3-c3cccc(C(F)(F)F)c3)[nH]c12 ... 6.55
CO[C@@H]1C[C@@H](c2nc3ccc(Cl)c(C)c3[nH]2)N(C(=O)c2cc(Cl)ccc2-n2nccn2)C1 ... 8.30
COc1cccc(-c2nc(C)ncc2C(=O)N2CCC[C@H]2c2nc3ccc(SC)cc3[nH]2)c1 ... 7.06
C[C@@]1(c2nc3cc(C(F)(F)F)ccc3[nH]2)CCCN1C(=O)c1cc(-c2cccnc2)ccc1-c1ccccc1 ... 7.49

Give measured pIC50 for CSc1cccc2[nH]c([C@@H]3CCCN3C(=O)c3nc(C)ccc3-n3nccn3)nc12 (human orexin-2 receptor (Homo sapiens (Human))).
7.12

----------
We begin with a simple list: items and their reported pIC50.
target: UniProt O43613; test: In vitro assay: intracellular calcium measurements (FLIPR), antagonistic activity; details: CHO cells expressing human orexin-1 receptor, orexin-A agonist, geometric mean, read-out: IC50 Ox1
Quick note: pIC50 values are minus log10 of concentrations in mol/L.

Cc1ccc(C(=O)N2CCC[C@@]2(C)c2nc3cc(OC(F)(F)F)ccc3[nH]2)c(-c2ccccc2)c1 ... 7.25

Tell me measured pIC50 for Cc1ccc(-n2nccn2)c(C(=O)N2CCC[C@@]2(C)c2nc3cc(C(F)(F)F)c(Cl)cc3[nH]2)c1 please.
8.70

Tell me measured pIC50 for Cc1nc(C(=O)N2CC[C@H](C)[C@H]2c2nc3c(C(F)(F)F)cccc3[nH]2)c(-c2ccc(F)c(F)c2)s1 please.
7.59

Tell me measured pIC50 for Cc1ccc(-n2nccn2)c(C(=O)N2CCC[C@@]2(C)c2nc3cc(C(F)(F)F)c(Cl)cc3[nH]2)n1 please.
8.22

----------
biological target: human orexin-1 receptor (Homo sapiens (Human), UniProt O43613); assay: In vitro assay: intracellular calcium measurements (FLIPR), antagonistic activity; settings: CHO cells expressing human orexin-1 receptor, orexin-A agonist, geometric mean, read-out: IC50 Ox1
Sequence (O43613 whole entry): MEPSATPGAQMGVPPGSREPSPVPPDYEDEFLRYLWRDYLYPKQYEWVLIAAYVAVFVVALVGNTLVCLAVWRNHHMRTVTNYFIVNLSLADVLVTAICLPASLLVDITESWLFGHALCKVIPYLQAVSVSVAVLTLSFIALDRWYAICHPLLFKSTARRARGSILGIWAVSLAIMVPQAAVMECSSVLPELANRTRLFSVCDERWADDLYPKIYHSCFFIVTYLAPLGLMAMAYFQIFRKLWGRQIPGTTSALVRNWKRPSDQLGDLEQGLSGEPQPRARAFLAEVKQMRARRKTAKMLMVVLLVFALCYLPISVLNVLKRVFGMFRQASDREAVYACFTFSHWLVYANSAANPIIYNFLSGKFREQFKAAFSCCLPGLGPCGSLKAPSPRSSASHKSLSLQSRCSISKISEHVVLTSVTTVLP
outcome-measure: log10 of IC50 (log10 of the value in µM)
Log10 applied to IC50; unit prior to transform: µM.

Example entries begin here.
Cc1c(Cl)ccc2nc([C@]3(C)CCCN3C(=O)c3nc(-c4ccccc4)sc3-c3ccc(F)cc3)[nH]c12 [Ex. 5.226] ... -2.15
COCCn1c([C@]2(C)CCCN2C(=O)c2cc(C)ccc2-c2cccc(F)c2)nc2cc(C)c(C)cc21 [Ex. 7.36] ... -1.80
Cc1ccc2[nH]c([C@@H]3[C@@H](C)CCN3C(=O)c3nc(C)sc3-c3ccccc3)nc2c1 [Ex. 4.5] ... -1.54
COc1cc2nc([C@@H]3[C@@H](C)CCN3C(=O)c3cc(C(F)(F)F)ccc3-n3nccn3)[nH]c2cc1OC [Ex. 4.47] ... -0.75
C=C1C[C@@H](c2nc3cc(C(C)(C)C)ccc3[nH]2)N(C(=O)c2cc(C(F)(F)F)ccc2-n2nccn2)C1 [Ex. 6.168] ... -0.58
Cc1ccc(-c2ccc(C#N)cc2)c(C(=O)N2CCC[C@@]2(C)c2nc3cc(C(F)(F)F)ccc3[nH]2)c1 [Ex. 5.193] ... -1.62

Kindly review the next molecule as well.
Give measured log10 of IC50 for CSc1ccc2nc([C@@H]3CCCN3C(=O)c3cc(F)ccc3-n3nccn3)[nH]c2c1 [Ex. 1.147] (human orexin-1 receptor (Homo sapiens (Human), UniProt O43613)).
-0.16

----------
We begin with a simple list: items and their reported pIC50.
molecular target: human orexin-2 receptor (Homo sapiens (Human), UniProt O43614); assay: In vitro assay: intracellular calcium measurements (FLIPR), antagonistic activity; conditions: CHO cells expressing human orexin-2 receptor, orexin-A agonist, geometric mean, read-out: IC50 Ox2
Sequence (O43614 whole entry): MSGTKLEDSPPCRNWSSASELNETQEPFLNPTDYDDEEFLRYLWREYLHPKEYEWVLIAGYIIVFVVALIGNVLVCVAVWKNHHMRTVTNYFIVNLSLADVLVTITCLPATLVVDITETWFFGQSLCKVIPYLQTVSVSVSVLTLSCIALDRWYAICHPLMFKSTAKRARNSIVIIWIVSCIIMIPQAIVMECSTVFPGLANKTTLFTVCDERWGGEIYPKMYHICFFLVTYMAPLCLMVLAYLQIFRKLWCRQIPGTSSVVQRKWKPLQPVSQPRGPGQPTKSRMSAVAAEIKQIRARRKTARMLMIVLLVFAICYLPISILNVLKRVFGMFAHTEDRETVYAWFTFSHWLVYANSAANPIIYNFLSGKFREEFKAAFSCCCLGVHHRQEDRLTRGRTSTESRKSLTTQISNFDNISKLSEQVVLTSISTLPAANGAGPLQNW
Quick note: pIC50 values are minus log10 of concentrations in mol/L.

Example entries begin here.
C[C@@]1(c2nc3ccc(C(F)(F)F)cc3[nH]2)CCCN1C(=O)c1nc(-c2ccccc2F)sc1-c1ccc(F)cc1 ... 6.15
Cc1ccc(-n2nccn2)c(C(=O)N2CC[C@H](C)[C@H]2c2nc3c(C)cc(C)cc3[nH]2)c1 ... 6.53
Cc1cc2nc([C@]3(C)CCCN3C(=O)c3ccccc3-c3ccccc3F)[nH]c2cc1C ... 7.15
CSc1cccc2[nH]c([C@@H]3CCCN3C(=O)c3c(-n4nccn4)ccc(C)c3F)nc12 ... 7.06
Cc1ccc(C(=O)N2CCC[C@@]2(C)c2nc3cc(OC(F)(F)F)ccc3[nH]2)c(-c2ccccc2)c1 ... 6.40

Tell me measured pIC50 for COC(=O)c1cccc2nc([C@@H]3[C@@H](C)CCN3C(=O)c3nc(C)sc3-c3cccc(Cl)c3)[nH]c12 please.
5.31

Tell me measured pIC50 for COc1cc2nc([C@]3(C)CCCN3C(=O)c3nc(C)sc3-c3cc(F)cc(F)c3)[nH]c2cc1OC please.
7.33

----------
molecular target: human orexin-2 receptor (Homo sapiens (Human), UniProt O43614); assay: In vitro assay: intracellular calcium measurements (FLIPR), antagonistic activity; details: CHO cells expressing human orexin-2 receptor, orexin-A agonist, geometric mean, read-out: IC50 Ox2
We begin with a simple list: items and their reported log10(IC50).
Log10 applied to IC50; unit prior to transform: nM.

Example entries begin here.
COc1cccc(-c2sc(C)nc2C(=O)N2CCC[C@@]2(C)c2nc3c(C)c(C)c(Br)cc3[nH]2)c1 [Ex. 5.275] ... 0.78
Cc1cc2[nH]c([C@@H]3[C@@H](C)CCN3C(=O)c3c(-n4nccn4)ccc(C)c3F)nc2cc1Cl [Ex. 4.75] ... 2.80
Cc1ccc(-n2nccn2)c(C(=O)N2CC[C@H](C)[C@H]2c2nc3c(C)c(Cl)ccc3[nH]2)c1 [Ex. 4.35] ... 2.29
CO[C@@H]1C[C@@H](c2nc3ccc(Cl)c(C)c3[nH]2)N(C(=O)c2cc(F)ccc2-n2nccn2)C1 [Ex. 3.18] ... 0.60
Cc1ccc(-n2nccn2)c(C(=O)N2CCC[C@@]2(C)c2nc3c(Br)cc(F)cc3[nH]2)c1 [Ex. 5.25] ... 1.91
COc1ccc(-c2nc(C(=O)N3CCC[C@@]3(C)c3nc4cc(Cl)c(C(F)(F)F)cc4[nH]3)c(-c3ccc(F)cc3)s2)cc1 [Ex. 5.293] ... 3.61

Kindly review the next compound as well.
Give measured log10(IC50) for C=C1C[C@@H](c2nc3cc(OC)ccc3[nH]2)N(C(=O)c2nc(C)sc2-c2ccc(F)c(Br)c2)C1 [Ex. 6.24] (human orexin-2 receptor (Homo sapiens (Human), UniProt O43614)).
1.23

----------
target: human orexin-1 receptor (Homo sapiens (Human)); assay: In vitro assay: intracellular calcium measurements (FLIPR), antagonistic activity; settings: CHO cells expressing human orexin-1 receptor, orexin-A agonist, geometric mean, read-out: IC50 Ox1
outcome-measure: IC50 (nM)
Write the answer as a number in nM, unit excluded.

Cc1ccc(-c2nc(C(=O)N3CCC[C@@]3(C)c3nc4c(C)c(Cl)ccc4[nH]3)c(-c3ccc(F)cc3)s2)cc1 [Ex. 5.232] ... 20
Cc1cc(C(=O)N2CCC[C@@]2(C)c2nc3c(C)cccc3[nH]2)c(-n2nccn2)cc1C [Ex. 5.51] ... 10
CCn1c([C@]2(C)CCCN2C(=O)c2cc(C)ccc2-c2cccc(F)c2)nc2cc(C)c(C)cc21 [Ex. 7.31] ... 8
COc1ccc(-n2nccn2)c(C(=O)N2CCC[C@@]2(C)c2nc3cc(OC(F)(F)F)ccc3[nH]2)c1 [Ex. 5.237] ... 58
C=C1CC(c2nc3cc(C)c(C)cc3[nH]2)N(C(=O)c2cc(C)sc2-c2ccc(C)c(C)c2)C1 (racemic) [Ex. 6.75] ... 8
CO[C@H]1CN(C(=O)c2c(F)cccc2-n2nccn2)C(C)(c2nc3c(C)c(Cl)ccc3[nH]2)C1 (stereo partly shown) [Ex. 3.42] ... 193

Kindly review the next compound as well.
Tell me measured IC50 for Cc1ccc(-c2ccc(C(F)(F)F)cc2)c(C(=O)N2CCC[C@@]2(C)c2nc3cc(C(F)(F)F)c(Cl)cc3[nH]2)c1 [Ex. 5.157] please.
367
